# Test system: Vero E6 infected with SARS-CoV-2
# protocol-details: morphology score (similarity to uninfected cells); higher = more like uninfected cells
# condition-label: 24 h
Provide the reported morphology score of each item.

O=C(CCCN1CCC(n2c(=O)[nH]c3ccccc32)CC1)c1ccc(F)cc1 [benperidol] (10 µM)
-0.264

# batch size: 5; output morphology score per entry
1. O=C(O)COc1cccc(-c2ocnc2-c2nc(-c3ccccc3)c(-c3ccccc3)o2)c1 (10 µM)
2. CCCCN1CCCC1CNC(=O)c1cc(C#N)c2ccccc2c1OC (stereo not drawn) [nafadotride] (10 µM)
3. COC(=O)C1=C(C)NC(C)=C([N+](=O)[O-])[C@@H]1c1ccccc1C(F)(F)F (racemic) (10 µM)
4. CN(c1ccccc1CNc1nc(Nc2ccc3c(c2)CC(=O)N3)ncc1C(F)(F)F)S(C)(=O)=O (10 µM)
5. Nc1nc(Cl)nc2c1ncn2[C@@H]1O[C@H](CO)[C@@H](O)[C@H]1O [2-chloroadenosine] (10 µM)

[0.194, 0.327, 0.192, 0.0447, -0.0246]

# batch size: 3; output morphology score per entry
1. CN=c1nc(-c2ccccc2)n(-c2ccccc2)s1 (10 µM)
2. COc1ccc(Br)cc1S(=O)(=O)NC(=O)/C=C/c1ccccc1Cc1ccc2ccccc2c1 (10 µM)
3. O=C(Nc1ccc(N2CCC(C(=O)N3CCOCC3)CC2)cc1)c1cnc(Oc2ccccc2)nc1 (10 µM)

[-0.0414, 0.19, -0.02]

# batch size: 8; output morphology score per entry
1. Fc1ccc(C(OCCN2CCN(C/C=C/c3ccccc3)CC2)c2ccc(F)cc2)cc1 (10 µM)
2. CCOC(=O)c1c(C)[nH]c2ccc3c(c12)CN1CCc2cc(OC)ccc2C1O3 (stereo not drawn) (10 µM)
3. O=C(O)[C@@H]1C[C@@H](C2CCCCC2)CN1C(=O)CP(=O)(O)CCCCc1ccccc1 [fosinoprilat] (10 µM)
4. COc1ccc(C(=O)CC2(O)C(=O)Nc3c(Cl)ccc(Cl)c32)cc1 (stereo not drawn) (0.833333 µM)
5. CC(C)(O)C(=O)N1CCN(c2ccc(C(F)(F)F)c(C3=C(c4c[nH]c5ccccc45)C(=O)NC3=O)c2)CC1 (0.833333 µM)
6. NCCNc1ccc(NCCN)c2c1C(=O)c1ccncc1C2=O [pixantrone] (10 µM)
7. CS(=O)(=O)c1ccc(C2=C(c3ccccc3)C(=O)OC2)cc1 [rofecoxib] (10 µM)
8. N=C(N)c1cc2ccc(OC(=O)c3cccs3)cc2s1 (10 µM)

0.456
0.729
0.0775
0.00554
-0.201
0.328
0.0705
0.578

Please look at this compound and report its morphology score: CCOc1ccc(NC(C)=O)cc1 [phenacetin] (10 µM)
-0.129
